target_entity: MS2 coat protein, dlFG mutant (Escherichia phage MS2, UniProt P03612, del68-81insG)
measurement_protocol: 4 mM Mg2+; no ligand; RNA-MaP array; 100 mM Tris-HCl pH 7.5, 80 mM KCl, 4 mM MgCl2, 0.1 mg/mL BSA, 1 mM DTT, 0.01 mg/mL yeast tRNA, 0.01% Tween-20; protein 1.5 nM to 3 uM; 37 C (Table S3)
study_conditions: chain copies: 2; label: tethered by stalled RNA polymerase
Decision: Kd beneath 20 nM gives YES; Kd meeting or exceeding 20 nM gives NO.

QUERY: Dear colleague, could you confirm whether Kd of Eterna 7739457 (Exclusion - Theophylline B) (ssRNA) RNA: UUAUAUAUAUUAGAUACCAGUUUAAUGGAAACAAAUUAUGUUAUGAGUGAUGUUCAUGUAAGCCCUUGGCAGCUGGUAUGGGUUU falls below 20 nM? Thanks.
RESULT: NO

QUERY: Dear colleague, could you confirm whether Kd of Eterna 7745506 (Same State - Arginine B) (ssRNA) RNA: CCGGGCGGCCGAAGGAGCGGGCGGACCCGAGUGAUGUUCGGGUGGCCCGUGAGGGCCGGUGCCCAGGUAGGUCGCGGAUCCGCCC falls below 20 nM? Thanks.
RESULT: NO

QUERY: Dear colleague, could you confirm whether Kd of Eterna 7739799 (Exclusion - Arginine A) (ssRNA) RNA: CAGACCACAGAGUGAUGUUCUGUGUCCGAAGGAGCGCGCGAGAGCGCAGGUAGGUCGCGGAUACAGUUGACGUACCUUCAAGACA falls below 20 nM? Thanks.
RESULT: NO

QUERY: Dear colleague, could you confirm whether Kd of Eterna 6418068 (Inverted Exclusion NG 1) (ssRNA) RNA: CGUGCUAUGUAGAAGGCAGAUCUGAUUCAGAUCUGAGGAUAUACAUGAGGAUCACCCAUGUUAUGCACCAGCACGAGAGUGCAC falls below 20 nM? Thanks.
RESULT: YES

QUERY: Dear colleague, could you confirm whether Kd of Eterna 7716400 (Same State - Theophylline B) (ssRNA) RNA: AUUUGUUUAUGUGAUACCAGACUAAGCAGUGAUGUUGCUUUUAUUUUUGAAUUUUAAAUAGUCCCUUGGCAGCACUAUGUCUGUA falls below 20 nM? Thanks.
RESULT: NO

QUERY: Dear colleague, could you confirm whether Kd of Eterna 7675501 (Same State - Theophylline B) (ssRNA) RNA: CCAUCGCUAUUCGAUACCAGUCAUAAAAUCUUUGGUUAAAUAAAGGAGUGAUGUUCCAAAGACCCUUGGCAGCGAAUAGUGAUGG falls below 20 nM? Thanks.
RESULT: NO

QUERY: Dear colleague, could you confirm whether Kd of Eterna 7729933 (Exclusion - Tryptophan B) (ssRNA) RNA: GGAUAGGACACGGCCGCCACUUGCUAGGAUACUAGCAACAUUUCCUCUCAUGAGGAUCACCCAUGAAGGACCGGGUGUCCUAUCG falls below 20 nM? Thanks.
RESULT: NO

QUERY: Dear colleague, could you confirm whether Kd of Eterna 7734716 (Exclusion - FMN B) (ssRNA) RNA: GGAUAGGACACAGGAUAUGGUAGUGAUGUUACCAAACUGGUUAAACAUGUCAGAAAACUGGCAUGACCAGAAGGGUGUCCUAUCG falls below 20 nM? Thanks.
RESULT: NO

QUERY: Dear colleague, could you confirm whether Kd of Eterna 6095017 (Exclusion NG 3) (ssRNA) RNA: AAGGACUGUAAUAAUGUAGAAAUACAUGAGGAUCACCCAUGUAAGGAUAUCGUCAGGAAUACUGACGAGAAGGUACAUCAGUCC falls below 20 nM? Thanks.
RESULT: YES

QUERY: Dear colleague, could you confirm whether Kd of Eterna 5989570 (Sensor, turn-off variant 1) (ssRNA) RNA: GUCAUCACACAUGGGAUCAACAUGAGGAUCACCCAUGUUGUCAAGUUUUUUGCUCGUCUUAUAAUACGUUUGAUGAC falls below 20 nM? Thanks.
RESULT: NO

QUERY: Dear colleague, could you confirm whether Kd of Eterna 7722704 (Same State - FMN A) (ssRNA) RNA: GGCAGUGAUGUUGCCUAAGCAACGCAUGCAGAGGAUAUUCGUUCGGGAAGAAGGCUGCAGCGUUCUCUCGUCAGUGAUGUUGGCG falls below 20 nM? Thanks.
RESULT: NO

QUERY: Dear colleague, could you confirm whether Kd of Eterna 6381991 (Exclusion NG 1) (ssRNA) RNA: AUGCUUUAUGUAGGAUAUGCAUACGGUACGUAUGCAGAAGGACAUGAGGAUCACCCAUGUAAAUUAUUAUUACAUAUCAUACAU falls below 20 nM? Thanks.
RESULT: YES

QUERY: Dear colleague, could you confirm whether Kd of Eterna 7696080 (Exclusion - Tryptophan B) (ssRNA) RNA: UGAUACCAGACGGCCGCCACUAGGACCGGGAGUGAUGUUCCCAAUUUAAAAUGCUCGGCCGCCACUAGGACCGGGUCUGGUAUCU falls below 20 nM? Thanks.
RESULT: NO

QUERY: Dear colleague, could you confirm whether Kd of Eterna 7698835 (Same State - Arginine B) (ssRNA) RNA: GCUAUGGUAGGAAGGAGCGCUUAUUUAUUUUUACGAGUGAUGUUCGGUAGUAGAUAGUUAAAGCAGGUAGGUCGCCUACUAUAGC falls below 20 nM? Thanks.
RESULT: NO

QUERY: Dear colleague, could you confirm whether Kd of Eterna 9534 (Sensor v3, turn-off variant 2) (ssRNA) RNA: GGUACUAUCACCUGAGUGGUAGUGCCAUAAGCUUGUGAUACAUGAGGAUCACCCAUGUCCUCAUUUGCUCGUCUUAU falls below 20 nM? Thanks.
RESULT: NO

QUERY: Dear colleague, could you confirm whether Kd of Eterna 1038 (Exclusion - FMN A) (ssRNA) RNA: UCACCGCCUAGUGAUGUUACGCGACUCAGAAAGGAUAUAAUCAAUCUUAGAAGGUUCACACCGUAUGGAUAUUAUCUAUCUCGUU falls below 20 nM? Thanks.
RESULT: NO

QUERY: Dear colleague, could you confirm whether Kd of Eterna 6430466 (Small Loop Same State NG 3) (ssRNA) RNA: UUCGAGCCAAGGCUCGCGAGUACACAGGAUAUGGAAAGUCACAUGAGGAUCACCCAUGUCCAAAACCAGAAGGGUGAGACUAAG falls below 20 nM? Thanks.
RESULT: NO

QUERY: Dear colleague, could you confirm whether Kd of Eterna 6055371 (Brourd's mod of Exclusion 4) (ssRNA) RNA: GAUCGCCAUGUCAGGAUAUCUUGUAUACCCACGUUAGAGAAGGGACAUGAGGAUCACCCAUGUACCCUGGUUUU falls below 20 nM? Thanks.
RESULT: YES
